# Tested on: SNB-19
# measurement.notes: NCI tumour cell line growth inhibition, 48 h
Active and inactive are the calls of the source. Cut-off read from the data, not from the text of the source: active = GI50 up to about 1.1 µM and inactive = higher.
Respond using exactly one of the listed classes: active, inactive

- molecule: "O=C(O)CCSC(=O)Nc1ccccc1Cl"
  group.label: "inactive"

Query: // return assay outcome for O=C(NC(Cc1ccc(I)cc1)C(=O)O)c1ccc(I)cc1 (stereo unspecified)
Reply: inactive

Query: Call for entry COc1ccc(/N=N/c2c(C)c(C#N)c(=S)n(C3OC(CO)C(O)C(O)C3O)c2C)cc1 (stereo unspecified) :
Reply: inactive

Query: Hi, do you know how c1ccc(C(NC2=NCCO2)C2CC2)cc1 (stereo unspecified) came out in this test?
Reply: inactive

Query: Which result was noted for this molecule in the test: "CCOC(=O)c1ccc(C(=O)/C(C(C)=O)=C2\CCCN2C)n1C"
Reply: inactive

Query: Name the outcome recorded for "CC(=O)C=C1Nc2ccccc2N1" in the assay.
Reply: inactive

* * *

# System: MDA-MB-231
# measurement.notes: NCI tumour cell line growth inhibition, 48 h
Activity calls are given as the source filed them. Cut-off read from the data, not from the text of the source: active = GI50 up to about 1.1 µM and inactive = higher.
readout.type: GI50

Check out these entries, answers already filled in.
- compound: "Cc1cc2c(c(S(=O)(=O)c3ccc(Cl)cc3[N+](=O)[O-])c1)NCCC2"
  test.system: "MDA-MB-231"
  value.reported: "> 100 µM (inactive)"
- compound: "S=c1[nH]nc(Cn2c3ccc(Br)cc3c3nc4ccccc4nc32)o1"
  test.system: "MDA-MB-231"
  value.reported: "> 45.4 µM (inactive)"
- compound: "CC1C(C)(C)C23CC12C1(OCCO1)C3Br (centres undefined)"
  test.system: "MDA-MB-231"
  value.reported: "> 100 µM (inactive)"

With those in mind, consider the next compound.
Query: Which GI50 is reported for this compound? CC(=O)OCC1OC(n2c(C)c(/N=N/c3ccccc3)c(C)c(C#N)c2=S)C(OC(C)=O)C(OC(C)=O)C1OC(C)=O (centres undefined)
Reply: 20.6 µM (inactive)

* * *

# Tested on: A498
# measurement.notes: NCI tumour cell line growth inhibition, 48 h
The source made the active and inactive calls. No stated cut-off is given here; in the data, active = GI50 up to about 1.1 µM and inactive = higher.
readout.type: GI50

Please review the following examples before continuing.
- molecule: "CCOC(=O)CCSS(=O)(=O)C(F)(F)F"
  GI50: "> 100 µM (inactive)"
- molecule: "COc1ccc(C2=Nn3c(C)nnc3S/C2=C\\c2ccc(-c3ccc([N+](=O)[O-])cc3)o2)cc1"
  GI50: "31.2 µM (inactive)"
- molecule: "O=C(CSc1nnc(Cc2ccccc2)o1)Nc1cccc(Cl)c1"
  GI50: "> 100 µM (inactive)"
- molecule: "CCOP(=O)(/C=C\\n1cc(C)c(=O)[nH]c1=O)OCC"
  GI50: "> 100 µM (inactive)"
- molecule: "Cc1csc(NCc2ccc(Cl)cc2)n1"
  GI50: "40.1 µM (inactive)"
- molecule: "COc1ccc([C@H]2C=C(c3cc(F)c(Cl)cc3Cl)NC(=S)N2)cc1"
  GI50: "28.1 µM (inactive)"
- molecule: "COC(=O)C(C(=O)OC)C1CC(=O)c2c(Br)sc(Br)c21 (centres undefined)"
  GI50: "31.5 µM (inactive)"
- molecule: "Cc1c2cnccc2c(C)c2c1c1ccccc1n2CCOC(=O)c1ccccc1"
  GI50: "1.75 µM (inactive)"
- molecule: "COc1ccccc1C1(c2c(OC)c(=O)c2=O)SCCCS1"
  GI50: "49 µM (inactive)"
- molecule: "CCCCCCCCCCCCCC(=O)CC(=O)c1c(O)cccc1O"
  GI50: "> 100 µM (inactive)"

Query: // returns reported GI50 for input "CC1(C)CS(=O)(=O)CC(C)(C)C(=N/N)/C1=N\N"
Reply: > 100 µM (inactive)

Query: Given the entry "C[N+](C)(C)CC(=O)N/N=C(/Cc1cc(=O)oc2cc(O)ccc12)C(=O)Nc1ccc(Cl)cc1" , report its measured GI50.
Reply: > 100 µM (inactive)

Query: Requested read-out: GI50. Entry: "O=c1cc(-c2ccncc2)[nH]c2cc3c(cc12)OCO3"
Reply: > 100 µM (inactive)

Query: For the molecule "CN(C)c1ccc(/C=C2\C[C@H]3[C@@H]4CC=C5C[C@@H](N6CCCC6)CC[C@]5(C)[C@H]4CC[C@]3(C)[C@H]2O)cc1" , what GI50 is on record?
Reply: 1.01 µM (active)

* * *

# Test system: M14
# measurement.notes: NCI tumour cell line growth inhibition, 48 h
Calls of active or inactive are those of the source. Cut-off read from the data, not from the text of the source: active = GI50 up to about 1.1 µM and inactive = higher.
Hi! Could you answer with just one of these? T = active, F = inactive

Example entries begin here.
- compound: "CCOC(=O)c1nc2cc(C(F)(F)F)ccc2nc1Nc1ccc(Cl)c(Cl)c1"
  test.system: "M14"
  group.label: "F"
- compound: "CC12CCC(=O)N1[C@@H](c1ccccc1)[C@@H](c1ccccc1)O2 (stereo partly drawn)"
  test.system: "M14"
  group.label: "F"
- compound: "COc1ccccc1/C=C1\\C(=O)N(C(=O)Cc2ccccc2)N=C1C"
  test.system: "M14"
  group.label: "F"

Query: # lookup: test call for "C/C(CC(=O)Nc1ccc(NC(=O)C/C(C)=N\NC(N)=O)cc1)=N/NC(N)=O"
Reply: F

Query: So what was the verdict on "NCCSSCc1ccccc1CSSCCN" in this test?
Reply: F

* * *

// reported GI50 per item
# Tested on: NCI-H226
# measurement.notes: NCI tumour cell line growth inhibition, 48 h
Activity calls are given as the source filed them. Rule as the data show it: active = GI50 up to about 1.1 µM and inactive = higher.

Query: What reported GI50 corresponds to CC(=O)c1cc(CC2Cc3cc4c(cc3C2=O)CCC4)cc2c1CCC2 (centres undefined) on NCI-H226?
Reply: 44.9 µM (inactive)

* * *

Examples of molecules with documented GI50 follow.
# Test system: MDA-MB-231
# measurement.notes: NCI tumour cell line growth inhibition, 48 h
Active and inactive are the calls of the source. Cut-off read from the data, not from the text of the source: active = GI50 up to about 1.1 µM and inactive = higher.

- molecule: "CC(C)=NN/C(=N\\c1ccc(Cl)cc1)NS(=O)(=O)c1cc2ccccc2s1"
  readout.type: "GI50"
  value.reported: "> 100 µM (inactive)"
- molecule: "O=C(O)c1ccc(Cc2ccccc2C(=O)O)cc1"
  readout.type: "GI50"
  value.reported: "> 100 µM (inactive)"

Query: What does the record list as GI50 for CC(C)=CCC[C@](C)(O[C@@H]1O[C@H](CO)[C@@H](O)[C@H](O)[C@H]1O)[C@H]1CC[C@]2(C)[C@@H]1[C@H](O)C[C@@H]1[C@@]3(C)CC[C@H](O)C(C)(C)[C@@H]3[C@@H](O[C@@H]3O[C@H](CO)[C@@H](O)[C@H](O)[C@H]3O)C[C@]12C [GINSENOSIDE RG1] ?
Reply: > 100 µM (inactive)

Query: Looking for the measured GI50 of COC(=O)C(=O)C(C(=O)C(=O)Nc1ccc([N+](=O)[O-])cc1[N+](=O)[O-])c1nc2ccc(Cl)cc2nc1O (configuration not stated) , can you help?
Reply: 50.2 µM (inactive)

Query: Name the recorded GI50 for C=CC(CCc1ccc(C(=O)OCC)cc1)c1c(N)nc(N)[nH]c1=O (configuration not stated) .
Reply: > 100 µM (inactive)

Query: Consider the molecule "Cn1c(-c2ccc[se]2)ccc1-c1ccc(CO)[se]1" and give its measured GI50.
Reply: 32.6 µM (inactive)

Query: Which measured GI50 value corresponds to CC(C)(C)[Si](C)(C)OCC1OC(n2cnc3c(NC(=O)c4ccccc4)ncnc32)CC1O (configuration not stated) ?
Reply: 22.1 µM (inactive)

* * *

# Tested on: OVCAR-5
# measurement.notes: NCI tumour cell line growth inhibition, 48 h
Calls of active or inactive are those of the source. No stated cut-off is given here; in the data, active = GI50 up to about 1.1 µM and inactive = higher.
A correct response names exactly one class from Y (active), N (inactive)

- compound: "CC(=O)c1cc(CC2Cc3cc4c(cc3C2=O)CCC4)cc2c1CCC2 (stereo not drawn)"
  group.label: "N"
- compound: "C(=N\\N=C1NCCCN1)/c1ccc2ccccc2c1"
  group.label: "N"
- compound: "Nc1ncnc2c1ncn2C(=O)NC12CC3CC(CC(C3)C1)C2"
  group.label: "N"
- compound: "CC1(O)OC(=O)C2=C1CCC1C2CCC2(C)C(O)CCC12 (stereo not drawn)"
  group.label: "N"

Query: GET /call?item= "COC(=O)[C@H](Cc1ccccc1)NC(=O)c1ccc(CNC(=O)/C=C/c2ccc(OCc3ccccc3)cc2)cc1" returns the recorded outcome of this test.
Reply: N

Query: Which outcome was assigned to CC(=O)c1c(O)ccc2c1CC(CC=O)O2 (stereo not drawn) in this test?
Reply: N

Query: Record lookup: outcome of this test for "c1ccc(-c2nnn(CCN3CCCCC3)n2)cc1" ?
Reply: N

Query: What outcome does the record of this test show for NC1=NCC(CN2CCOCC2)O1 (stereo not drawn) ?
Reply: N

Query: # lookup: test call for "Nc1ccc(-c2nnc(-c3c(Cl)c(Cl)c(Cl)c(Cl)c3-c3nc4cc(C(=O)c5ccccc5)ccc4[nH]3)o2)cc1"
Reply: N
